# measured.on: rNav1.2 sodium channels (HEK-293 cells) (Rattus norvegicus, UniProt P04775)
# Sequence (P04775 whole entry): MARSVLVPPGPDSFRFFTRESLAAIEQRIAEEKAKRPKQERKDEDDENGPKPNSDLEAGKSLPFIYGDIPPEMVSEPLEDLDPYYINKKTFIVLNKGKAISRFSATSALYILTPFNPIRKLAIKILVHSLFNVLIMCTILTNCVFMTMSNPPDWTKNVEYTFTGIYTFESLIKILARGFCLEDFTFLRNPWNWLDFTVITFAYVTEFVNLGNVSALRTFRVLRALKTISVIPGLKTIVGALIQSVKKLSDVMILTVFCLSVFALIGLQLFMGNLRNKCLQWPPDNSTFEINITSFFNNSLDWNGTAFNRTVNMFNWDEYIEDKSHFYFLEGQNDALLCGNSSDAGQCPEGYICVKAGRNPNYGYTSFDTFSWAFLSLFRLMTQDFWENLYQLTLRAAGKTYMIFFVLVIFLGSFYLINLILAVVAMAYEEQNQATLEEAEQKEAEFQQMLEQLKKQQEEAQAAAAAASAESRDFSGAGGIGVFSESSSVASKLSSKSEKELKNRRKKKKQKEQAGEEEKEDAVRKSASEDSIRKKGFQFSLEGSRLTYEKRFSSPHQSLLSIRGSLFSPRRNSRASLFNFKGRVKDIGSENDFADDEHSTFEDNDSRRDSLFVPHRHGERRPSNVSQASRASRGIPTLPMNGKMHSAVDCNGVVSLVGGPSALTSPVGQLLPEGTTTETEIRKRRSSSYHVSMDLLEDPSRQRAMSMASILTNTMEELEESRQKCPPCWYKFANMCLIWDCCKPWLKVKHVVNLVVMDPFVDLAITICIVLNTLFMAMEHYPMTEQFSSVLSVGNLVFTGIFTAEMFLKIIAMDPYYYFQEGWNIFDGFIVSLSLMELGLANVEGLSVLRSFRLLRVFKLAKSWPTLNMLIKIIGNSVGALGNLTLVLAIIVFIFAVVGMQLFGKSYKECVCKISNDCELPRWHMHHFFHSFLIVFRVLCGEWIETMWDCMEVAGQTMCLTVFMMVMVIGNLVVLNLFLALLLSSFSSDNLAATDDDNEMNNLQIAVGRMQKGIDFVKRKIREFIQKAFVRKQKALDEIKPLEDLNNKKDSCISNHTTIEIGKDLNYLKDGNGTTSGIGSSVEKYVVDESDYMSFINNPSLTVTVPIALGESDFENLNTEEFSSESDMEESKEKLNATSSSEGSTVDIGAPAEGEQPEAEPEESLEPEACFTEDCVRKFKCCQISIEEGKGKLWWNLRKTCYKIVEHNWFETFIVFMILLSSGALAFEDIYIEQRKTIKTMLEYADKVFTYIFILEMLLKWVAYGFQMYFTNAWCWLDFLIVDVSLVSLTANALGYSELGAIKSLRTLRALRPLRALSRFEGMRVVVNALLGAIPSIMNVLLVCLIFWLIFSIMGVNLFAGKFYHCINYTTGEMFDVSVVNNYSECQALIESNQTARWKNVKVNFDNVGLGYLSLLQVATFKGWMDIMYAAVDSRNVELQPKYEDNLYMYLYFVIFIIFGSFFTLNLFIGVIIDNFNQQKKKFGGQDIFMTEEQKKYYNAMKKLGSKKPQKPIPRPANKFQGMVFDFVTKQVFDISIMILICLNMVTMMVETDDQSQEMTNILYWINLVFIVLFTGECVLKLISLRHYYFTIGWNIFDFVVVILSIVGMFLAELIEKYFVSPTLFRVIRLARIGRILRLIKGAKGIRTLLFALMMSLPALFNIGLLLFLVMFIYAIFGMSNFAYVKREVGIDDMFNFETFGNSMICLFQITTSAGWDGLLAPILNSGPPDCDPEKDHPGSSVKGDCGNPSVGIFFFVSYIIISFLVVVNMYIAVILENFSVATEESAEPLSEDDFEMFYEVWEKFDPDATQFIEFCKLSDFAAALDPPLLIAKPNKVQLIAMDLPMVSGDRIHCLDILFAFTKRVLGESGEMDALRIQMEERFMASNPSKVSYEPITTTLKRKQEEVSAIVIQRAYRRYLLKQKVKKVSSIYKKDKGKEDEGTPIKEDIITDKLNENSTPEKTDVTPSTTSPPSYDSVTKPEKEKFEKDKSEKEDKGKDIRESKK
# measurement.notes: steady-state inactivation protocol (availability curves), QPatch automated patch-clamp
# Format: cell-based
# experimental.parameters: HEK293; 300 µM; read-out: Inh (inhibited fraction) at holding potential −150 mV
measurement.name: inhibition at 300 µM

These solved cases illustrate the format of a correct answer.
I would be grateful if you could share the reported inhibition at 300 µM for NC(=O)N1c2ccccc2C=Cc2ccccc21 [CBZ, Carbamazepine] . 21%

State the recorded inhibition at 300 µM for this entry: O=C(NCC1CCCCN1)c1cc(OCC(F)(F)F)ccc1OCC(F)(F)F (centres unmarked) [FLC, Flecainide] 82%

Can you share its inhibition at 300 µM? I mean this compound: COc1ccccc1OCC(O)CN1CCN(CC(=O)Nc2c(C)cccc2C)CC1 (centres unmarked) 42%

I am curious: what inhibition at 300 µM value has been reported for Cc1cccc(C)c1OCC(C)N (centres unmarked) ? 32%

# context switch: different compound, same inhibition at 300 µM
Quick one: inhibition at 300 µM of `O=C1NC(=O)C(c2ccccc2)(c2ccccc2)N1` ? 12%

###

# measured.on: rNav1.2 sodium channels (HEK-293 cells) (Rattus norvegicus)
# measurement.notes: 5 Hz train protocol, QPatch automated patch-clamp
# Assay type: cell-based
# experimental.parameters: HEK293; calculated from Inh at single concentration 30 μM; −90 mV, 5 Hz train; read-out: IC50
measurement.name: potency estimated from few doses
I'd appreciate it if you wrote the number followed by its unit.

Value lookup for potency estimated from few doses; key = Cc1ccc(-c2nc(C)c(CN3CCN(C(c4ccccc4)c4ccccc4)CC3)[nH]2)cc1 [LIF, Lifarizine] 5.29 µM

I have this compound here, Nc1nc2ccc(OC(F)(F)F)cc2s1 [RIL, Riluzole] , and I need its recorded potency estimated from few doses. 81 µM

// returns reported potency estimated from few doses for input Fc1ccc([C@@H]2CCNC[C@H]2COc2ccc3c(c2)OCO3)cc1 [PRX, Paroxetine] 16.2 µM

New cases:
Consider the compound shown here: CCc1nn(CCCN2CCN(c3cccc(Cl)c3)CC2)c(=O)n1CCOc1ccccc1 [NFZ, Nefazodone] What is its recorded potency estimated from few doses? 46.4 µM

Record request: potency estimated from few doses value, item CN(C)CCC=C1c2ccccc2CCc2ccccc21 [AMI, Amitriptyline] 23.5 µM

Endpoint output: potency estimated from few doses of CN(C)CC/C=C1/c2ccccc2Sc2ccc(Cl)cc21 [CHX, Chlorprothixene] . Value? 42.5 µM

Look at this compound and give its reported potency estimated from few doses. Cc1nc2sccn2c(=O)c1CCN1CCC(=C(c2ccc(F)cc2)c2ccc(F)cc2)CC1 [RIT, Ritanserin] 23.6 µM

Which measured potency estimated from few doses value corresponds to CN(C)CCCN1c2ccccc2Sc2ccc(Cl)cc21 [CPM, Chlorpromazine] ? 47.3 µM

Please report the recorded potency estimated from few doses for CNCCCN1c2ccccc2CCc2ccccc21 [DMI, Desipramine] . 18.3 µM

###

# measured.on: rNav1.2 sodium channels (HEK-293 cells) (Rattus norvegicus, UniProt P04775)
# measurement.notes: steady-state inactivation protocol (availability curves), QPatch automated patch-clamp
# Assay type: cell-based
# experimental.parameters: geometric mean; from apparent affinity, 100 µM; read-out: Ki−Kapp (inactivated state affinity)
Entries whose Ki is below 8 µM take t; entries at or above 8 µM take f.

Look over these answered cases.
API: query returns whether the molecule falls strictly under 8 µM in Ki. Query: `O=C(O)Cc1ccccc1Nc1c(Cl)cccc1Cl` f

Answer whether the molecule `CN(C)CCC=C1c2ccccc2CCc2ccccc21` has Ki strictly less than 8 µM t

In plain terms, does CC(NC(C)(C)C)C(=O)c1cccc(Cl)c1 (centres unmarked) come in under 8 µM for Ki? f

Check if Ki falls below 8 µM for CN1CCN2c3ncccc3Cc3ccccc3C2C1 (centres unmarked) . t

Please determine if CC12CC3CC(C)(C1)CC(N)(C3)C2 [MEM, Memantine] is below 8 µM in terms of Ki. f

***
Here's an entry: `C[Si](C)(Cc1ccc(F)cc1)CN1CCCCC1` . Is its Ki below 8 µM? t

Would you kindly verify if Ki of `Nc1c(Br)cc(Br)cc1CN[C@H]1CC[C@H](O)CC1` is strictly less than 8 µM? f

###

# measured.on: rNav1.2 sodium channels (HEK-293 cells) (Rattus norvegicus, UniProt P04775)
# measurement.notes: 5 Hz train protocol, QPatch automated patch-clamp
# Assay type: cell-based
# experimental.parameters: 100 μM
Using τon as the sorting value, the categories are low: < 5 s; medium: ≥ 5 s and < 7 s; high: ≥ 7 s

Hey, which category is `C[Si](C)(Cc1ccc(F)cc1)CN1CCCCC1` in, do you know? low

Further cases:
Please report the category associated with CC12CC3CC(C)(C1)CC(N)(C3)C2 [MEM, Memantine] , nothing else. low

Which class does COc1ccc(C(CN(C)C)C2(O)CCCCC2)cc1 (centres unmarked) fall in? low

###

Reported Ki is given for each of the following compounds.
# measured.on: rNav1.2 sodium channels (HEK-293 cells) (Rattus norvegicus)
# measurement.notes: steady-state inactivation protocol (availability curves), QPatch automated patch-clamp
# Format: cell-based
# experimental.parameters: arithmetic mean; 100 µM; read-out: Ki-ΔV1/2 arith
Please reply with the bare figure in µM and do not write the unit itself.

Some solved entries appear below for comparison.
Please give the measured Ki for this compound: CC12CC3CC(C)(C1)CC(N)(C3)C2 [MEM, Memantine] 119

Can you share its Ki? I mean this compound: CCCCN1CCCCC1C(=O)Nc1c(C)cccc1C (stereo not shown) 6.46

Give its Ki value. Item: `C[Si](C)(Cc1ccc(F)cc1)CN1CCCCC1` 14.6

Then there is this compound:
Data request, read-out Ki, for `O=C(O)Cc1ccccc1Nc1c(Cl)cccc1Cl` 102

###

Kd values for the compounds below.
# measured.on: rNav1.2 sodium channels (HEK-293 cells) (Rattus norvegicus)
# measurement.notes: steady-state inactivation protocol (availability curves), QPatch automated patch-clamp
# Type: cell-based
# experimental.parameters: geometric mean; from Inh at −150 mV, 100 µM; read-out: Kr (resting state affinity)
Give the quantity in µM, number only.

Answered cases to consult:
Name the recorded Kd for `C[Si](C)(Cc1ccc(F)cc1)CN1CCCCC1` . 133

Give its Kd value. Item: Cc1ccc(C(=O)C(C)CN2CCCCC2)cc1 (stereo not drawn) 391

Item under review: `O=C(O)Cc1ccccc1Nc1c(Cl)cccc1Cl` . Reported Kd? 3120

Recorded Kd for `Nc1c(Br)cc(Br)cc1CN[C@H]1CC[C@H](O)CC1` , please? 201

Others:
What value of Kd has been recorded for this entry: CC(NC(C)(C)C)C(=O)c1cccc(Cl)c1 (stereo not drawn) 604

Entry CCCCN1CCCCC1C(=O)Nc1c(C)cccc1C (stereo not drawn) has what Kd? 619

Quick one: Kd of `CN(C)CCC=C1c2ccccc2CCc2ccccc21` ? 69.6

Which Kd reading was recorded for the compound CN1CCN2c3ncccc3Cc3ccccc3C2C1 (stereo not drawn) ? 317

Name the recorded Kd for CC12CC3CC(C)(C1)CC(N)(C3)C2 [MEM, Memantine] . 242

###

# measured.on: rNav1.2 sodium channels (HEK-293 cells) (Rattus norvegicus)
# measurement.notes: 5 Hz train protocol, QPatch automated patch-clamp
# Assay type: cell-based
# experimental.parameters: 5 Hz train
measurement.name: use-dependence (UD)

Reported use-dependence (UD), compound O=C(NCC1CCCCN1)c1cc(OCC(F)(F)F)ccc1OCC(F)(F)F (stereo not shown) [FLC, Flecainide] : ____ high

Name the recorded use-dependence (UD) for Cc1ccc(-c2nc(C)c(CN3CCN(C(c4ccccc4)c4ccccc4)CC3)[nH]2)cc1 [LIF, Lifarizine] . no use-dependence

Please report the recorded use-dependence (UD) for Nc1nc2ccc(OC(F)(F)F)cc2s1 [RIL, Riluzole] . no use-dependence

###

# measured.on: rNav1.2 sodium channels (HEK-293 cells) (Rattus norvegicus)
# measurement.notes: steady-state inactivation protocol (availability curves), QPatch automated patch-clamp
# Format: cell-based
# experimental.parameters: geometric mean; from shift of availability curve, 10 µM; read-out: Ki−ΔV1/2 (inactivated state affinity)
measurement.name: Ki (nM)
Please give a number only; it is taken to be in nM.

Param item = `CN(C)CCC=C1c2ccccc2CCc2ccccc21` ; retrieve measured Ki. 1450

###

# measured.on: rNav1.2 sodium channels (HEK-293 cells) (Rattus norvegicus)
# measurement.notes: steady-state inactivation protocol (availability curves), QPatch automated patch-clamp
# Assay type: cell-based
# experimental.parameters: arithmetic mean; 100 µM; read-out: Ki-Kapp arith
# From the text: A)–D) Peak amplitudes of evoked currents (5 Hz trains of 5 depolarizations from −90 to −10 mV) are plotted against time. Black dots: Control. Grey dots: Drug perfusion. […] Calculation of properties of inhibition is illustrated. […] E) Calculation of Kr and Ki values from steady-state availability curves. Standard steady-state inactivation protocols were used to measure the shift of steady-state availability curve caused by the drugs. […] State-dependence (SD) was quantified as the ratio Kr/Ki. […]
// boundary case: Ki equal to 30 µM maps to not met; strictly smaller maps to met

Sample answers from the record:
Please determine if O=C(O)Cc1ccccc1Nc1c(Cl)cccc1Cl [DIC, Diclofenac] is below 30 µM in terms of Ki. not met

Field: below-cutoff. Rule: recorded Ki strictly less than 30 µM. Subject: CC12CC3CC(C)(C1)CC(N)(C3)C2 [MEM, Memantine] not met

For CC(NC(C)(C)C)C(=O)c1cccc(Cl)c1 (centres unmarked) [BPR, Bupropion] , is the recorded Ki below the cut-off of 30 µM? met

In plain terms, does CN(C)CCC=C1c2ccccc2CCc2ccccc21 [AMI, Amitriptyline] come in under 30 µM for Ki? met

In the following, a different molecule is considered.
Bench note: check whether CN1CCN2c3ncccc3Cc3ccccc3C2C1 (centres unmarked) [MRZ, Mirtazapine] shows Ki below 30 µM met
